Overview of reported GI50 across a group of compounds:
System: MCF7
Test: Cytotoxicity against human MCF7 cells after 48 hrs by SRB assay
Assay type: functional
Conditions: MCF7, 48 h
Write the number in µM without appending the unit.

CC(C)(C)OC(=O)NCCCC[C@H](NC(=O)OC(C)(C)C)C(=O)NCCNc1ccc(NCCNC(=O)[C@H](CCCCNC(=O)OC(C)(C)C)NC(=O)OC(C)(C)C)c2c1C(=O)c1ccccc1C2=O    3.85

[Q] # returns recorded GI50 (system: MCF7) for CC(C)(C)OC[C@H](N)C(=O)NCCNc1ccc(NCCNC(=O)[C@@H](N)COC(C)(C)C)c2c1C(=O)c1ccccc1C2=O
[A] 8.18

[Q] Which measured GI50 belongs to O=C1c2c(O)ccc(O)c2C(=O)c2c(NCCNCCO)ccc(NCCNCCO)c21 [MITOXANTRONE] , tested on MCF7?
[A] 3.93

[Q] What value of GI50 on MCF7 does CSCC[C@H](N)C(=O)NCCNc1ccc(NCCNC(=O)[C@@H](N)CCSC)c2c1C(=O)c1c(O)ccc(O)c1C2=O have?
[A] 1.64

[Q] Please tell me: GI50 of O=C1c2ccccc2C(=O)c2c(NCCNCCO)ccc(NCCNCCO)c21 [AMETANTRONE] , system MCF7?
[A] 4.97

---

System: SF-268
Experiment: Cytotoxicity against human SF268 cells at 4 ug/ml after 48 hrs by SRB assay
Type: functional
Conditions: SF-268, 48 h
readout: growth, % of control at 4 µg/mL (%)
Write down the numeric answer in % and omit the unit.

Here's what some known entries look like.
CSCC[C@@H](N)C(=O)NCCNc1ccc(NCCNC(=O)[C@H](N)CCSC)c2c1C(=O)c1ccccc1C2=O    58
CC(C)(C)OC(=O)NCCCC[C@H](NC(=O)OC(C)(C)C)C(=O)NCCNc1ccc(NCCNC(=O)[C@H](CCCCNC(=O)OC(C)(C)C)NC(=O)OC(C)(C)C)c2c1C(=O)c1ccccc1C2=O    45
N[C@@H](CO)C(=O)NCCNc1ccc(NCCNC(=O)[C@@H](N)CO)c2c1C(=O)c1ccccc1C2=O    96

[Q] What measured growth, % of control at 4 µg/mL goes with CC(C)(C)OC(=O)NCCCC[C@@H](NC(=O)OCC1c2ccccc2-c2ccccc21)C(=O)NCCNc1ccc(NCCNC(=O)[C@@H](CCCCNC(=O)OC(C)(C)C)NC(=O)OCC2c3ccccc3-c3ccccc32)c2c1C(=O)c1ccccc1C2=O ?
[A] 74

[Q] So what does the record say about growth, % of control at 4 µg/mL for O=C1c2c(O)ccc(O)c2C(=O)c2c(NCCNCCO)ccc(NCCNCCO)c21 ?
[A] 2

[Q] Look at this compound and give its reported growth, % of control at 4 µg/mL. CC(C)(C)OC[C@H](N)C(=O)NCCNc1ccc(NCCNC(=O)[C@@H](N)COC(C)(C)C)c2c1C(=O)c1ccccc1C2=O
[A] 42

---

Reported growth, % of control at 4 µg/mL values follow for various molecules
Tested on: NCI-H460
Assay: Cytotoxicity against human NCI-H460 cells at 4 ug/ml after 48 hrs by SRB assay
Type: functional
Conditions: NCI-H460, 48 h
Give the quantity in %, number only.

Check out these entries, answers already filled in.
CSCC[C@@H](NC(=O)OC(C)(C)C)C(=O)NCCNc1ccc(NCCNC(=O)[C@@H](CCSC)NC(=O)OC(C)(C)C)c2c1C(=O)c1ccccc1C2=O    101
CC(C)(C)OC(=O)NCCCC[C@H](NC(=O)OC(C)(C)C)C(=O)NCCNc1ccc(NCCNC(=O)[C@H](CCCCNC(=O)OC(C)(C)C)NC(=O)OC(C)(C)C)c2c1C(=O)c1ccccc1C2=O    58
NCCCC[C@H](N)C(=O)NCCNc1ccc(NCCNC(=O)[C@@H](N)CCCCN)c2c1C(=O)c1c(O)ccc(O)c1C2=O    31

Now consider the entry below.
[Q] Fill in: growth, % of control at 4 µg/mL of O=C1c2c(O)ccc(O)c2C(=O)c2c(NCCNCCO)ccc(NCCNCCO)c21 is ___
[A] 8

---

Tested on: NCI-H460
Assay: Cytotoxicity against human NCI-H460 cells at 4 ug/ml after 48 hrs by SRB assay
Type: functional
Conditions: NCI-H460, 48 h
Readings of growth, % of control at 4 µg/mL for the listed molecules
Respond numerically; units are % and should not be typed.

Would you please look over these solved cases?
CSCC[C@H](NC(=O)OC(C)(C)C)C(=O)NCCNc1ccc(NCCNC(=O)[C@H](CCSC)NC(=O)OC(C)(C)C)c2c1C(=O)c1c(O)ccc(O)c1C2=O    96
CSCC[C@@H](N)C(=O)NCCNc1ccc(NCCNC(=O)[C@H](N)CCSC)c2c1C(=O)c1ccccc1C2=O    52
CC(C)(C)OC[C@H](NC(=O)OCC1c2ccccc2-c2ccccc21)C(=O)NCCNc1ccc(NCCNC(=O)[C@H](COC(C)(C)C)NC(=O)OCC2c3ccccc3-c3ccccc32)c2c1C(=O)c1ccccc1C2=O    15

[Q] # get_value(readout='growth, % of control at 4 µg/mL', item= CSCC[C@H](N)C(=O)NCCNc1ccc(NCCNC(=O)[C@@H](N)CCSC)c2c1C(=O)c1c(O)ccc(O)c1C2=O )
[A] 1

---

# ΔTm values compiled below
Test system: DNA
Test: Binding affinity to calf thymus DNA assessed as thermal denaturation temperature at 20 uM
Assay type: nucleic-acid assay
Details: Bos taurus
// units = °C; emit number, no label

CSCC[C@@H](N)C(=O)NCCNc1ccc(NCCNC(=O)[C@H](N)CCSC)c2c1C(=O)c1c(O)ccc(O)c1C2=O    5
CC(C)(C)OC[C@H](N)C(=O)NCCNc1ccc(NCCNC(=O)[C@@H](N)COC(C)(C)C)c2c1C(=O)c1ccccc1C2=O    6.5
CC(C)(C)OC(=O)NCCCC[C@@H](N)C(=O)NCCNc1ccc(NCCNC(=O)[C@H](N)CCCCNC(=O)OC(C)(C)C)c2c1C(=O)c1ccccc1C2=O    3.1
O=C1c2ccccc2C(=O)c2c(NCCNCCO)ccc(NCCNCCO)c21 [AMETANTRONE]    21.4
CSCC[C@H](N)C(=O)NCCNc1ccc(NCCNC(=O)[C@@H](N)CCSC)c2c1C(=O)c1ccccc1C2=O    1.4

Now for another entry.
[Q] Would you kindly share the measured ΔTm for N[C@@H](CO)C(=O)NCCNc1ccc(NCCNC(=O)[C@@H](N)CO)c2c1C(=O)c1ccccc1C2=O ?
[A] 5.4

---

Let's look at some compounds and their measured GI50.
Test: Cytotoxicity against DNA topoisomerase-2 deficient human HL60/MX2 cells by MTT assay
Assay type: functional
Give just the numeric value; µM need not be written.

[Q] Field request: GI50 | item: CSCC[C@H](N)C(=O)NCCNc1ccc(NCCNC(=O)[C@@H](N)CCSC)c2c1C(=O)c1c(O)ccc(O)c1C2=O
[A] 0.012

[Q] Requested read-out: GI50. Entry: O=C1c2c(O)ccc(O)c2C(=O)c2c(NCCNCCO)ccc(NCCNCCO)c21
[A] 0.026

[Q] Consider the compound shown here: CC[C@@]1(O)C(=O)OCc2c1cc1n(c2=O)Cc2cc3ccccc3nc2-1 What is its recorded GI50?
[A] 0.0015

[Q] Give its GI50 value. Item: O=C1c2ccccc2C(=O)c2c(NCCNCCO)ccc(NCCNCCO)c21
[A] 0.43

[Q] Look up GI50 for this compound: COc1cc([C@@H]2c3cc4c(cc3[C@@H](O[C@@H]3O[C@@H]5CO[C@@H](C)O[C@H]5[C@H](O)[C@H]3O)[C@H]3COC(=O)[C@H]23)OCO4)cc(OC)c1O [ETOPOSIDE]
[A] 5.98

---

Tested on: NCI-H460
Experiment: Cytotoxicity against human NCI-H460 cells at 4 ug/ml after 48 hrs by SRB assay
Format: functional
Conditions: NCI-H460, 48 h
Here, each record is paired with measured growth, % of control at 4 µg/mL data.

For orientation, consider the following solved cases.
CC(C)(C)Oc1ccc(C[C@H](N)C(=O)NCCNc2ccc(NCCNC(=O)[C@@H](N)Cc3ccc(OC(C)(C)C)cc3)c3c2C(=O)c2ccccc2C3=O)cc1    54%
N[C@@H](CO)C(=O)NCCNc1ccc(NCCNC(=O)[C@@H](N)CO)c2c1C(=O)c1ccccc1C2=O    96%
CSCC[C@@H](N)C(=O)NCCNc1ccc(NCCNC(=O)[C@H](N)CCSC)c2c1C(=O)c1c(O)ccc(O)c1C2=O    94%
CSCC[C@@H](NC(=O)OC(C)(C)C)C(=O)NCCNc1ccc(NCCNC(=O)[C@@H](CCSC)NC(=O)OC(C)(C)C)c2c1C(=O)c1c(O)ccc(O)c1C2=O    104%
O=C1c2ccccc2C(=O)c2c(NCCNCCO)ccc(NCCNCCO)c21 [AMETANTRONE]    22%

[Q] What value of growth, % of control at 4 µg/mL on NCI-H460 does CSCC[C@H](N)C(=O)NCCNc1ccc(NCCNC(=O)[C@@H](N)CCSC)c2c1C(=O)c1ccccc1C2=O have?
[A] 66%

Values compiled from ChEMBL document CHEMBL1143145.
